target: Alkaline phosphatase, placental type (Homo sapiens)
Sequence (P05187 whole entry): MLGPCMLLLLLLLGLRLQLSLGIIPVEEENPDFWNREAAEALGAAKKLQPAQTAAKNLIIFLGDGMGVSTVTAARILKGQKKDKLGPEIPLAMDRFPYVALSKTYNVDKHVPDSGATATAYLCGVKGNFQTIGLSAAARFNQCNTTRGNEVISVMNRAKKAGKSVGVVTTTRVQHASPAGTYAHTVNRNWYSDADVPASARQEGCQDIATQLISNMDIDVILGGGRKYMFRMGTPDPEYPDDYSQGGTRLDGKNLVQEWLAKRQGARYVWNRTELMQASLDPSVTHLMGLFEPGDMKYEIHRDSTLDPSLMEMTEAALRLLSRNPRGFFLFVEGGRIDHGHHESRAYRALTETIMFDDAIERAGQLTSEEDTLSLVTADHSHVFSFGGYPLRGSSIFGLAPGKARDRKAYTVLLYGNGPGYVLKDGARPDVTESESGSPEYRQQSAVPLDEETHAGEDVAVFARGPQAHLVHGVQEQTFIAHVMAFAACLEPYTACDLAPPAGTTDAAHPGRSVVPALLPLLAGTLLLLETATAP
pIC50: −log10 of the molar value.
measurement kind: pIC50

* COc1ccc(Cl)cc1S(=O)(=O)Nc1cncc(C(N)=O)c1 | < 4.10

----------
molecular target: UniProt P09923
Sequence (P09923 whole entry): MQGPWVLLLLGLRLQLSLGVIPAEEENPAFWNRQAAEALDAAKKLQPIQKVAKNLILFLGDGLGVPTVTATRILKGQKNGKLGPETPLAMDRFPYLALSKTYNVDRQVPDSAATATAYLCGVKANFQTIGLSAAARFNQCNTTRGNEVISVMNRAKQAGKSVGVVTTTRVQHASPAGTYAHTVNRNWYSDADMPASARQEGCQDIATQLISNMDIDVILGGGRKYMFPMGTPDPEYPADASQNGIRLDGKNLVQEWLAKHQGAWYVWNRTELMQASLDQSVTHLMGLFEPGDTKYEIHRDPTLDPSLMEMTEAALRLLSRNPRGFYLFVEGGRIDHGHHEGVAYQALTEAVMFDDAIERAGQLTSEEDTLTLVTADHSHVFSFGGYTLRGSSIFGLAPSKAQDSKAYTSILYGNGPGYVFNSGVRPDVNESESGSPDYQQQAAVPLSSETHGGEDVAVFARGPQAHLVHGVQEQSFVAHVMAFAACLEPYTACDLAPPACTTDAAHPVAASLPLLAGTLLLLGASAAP
measurement kind: IC50

* COc1ccc(Cl)cc1S(=O)(=O)Nc1cncc(C(N)=O)c1 | > 80 µM

----------
target: Alkaline phosphatase, tissue-nonspecific isozyme (Homo sapiens, UniProt P05186); experiment: Inhibition of TNAP (unknown origin) in whole blood using pNPP as substrate
measurement kind: IC50 (nM)

• COc1ccc(Cl)cc1S(=O)(=O)Nc1cncc(C(N)=O)c1 = 105

----------
assay: Half life in mouse at 10 mg/kg, po; type: ADME, organism-based; details: in vivo
measurement kind: half-life (h)

• COc1ccc(Cl)cc1S(=O)(=O)Nc1cncc(C(N)=O)c1 = 2.3
• COc1ccc(Br)cc1S(=O)(=O)Nc1cncc(C(N)=O)c1 = 2.2
• COc1ccc(F)cc1S(=O)(=O)Nc1cncc(C(N)=O)c1 = 3.7

----------
Target: Alkaline phosphatase, tissue-nonspecific isozyme (Homo sapiens, UniProt P05186)
Sequence (P05186 whole entry): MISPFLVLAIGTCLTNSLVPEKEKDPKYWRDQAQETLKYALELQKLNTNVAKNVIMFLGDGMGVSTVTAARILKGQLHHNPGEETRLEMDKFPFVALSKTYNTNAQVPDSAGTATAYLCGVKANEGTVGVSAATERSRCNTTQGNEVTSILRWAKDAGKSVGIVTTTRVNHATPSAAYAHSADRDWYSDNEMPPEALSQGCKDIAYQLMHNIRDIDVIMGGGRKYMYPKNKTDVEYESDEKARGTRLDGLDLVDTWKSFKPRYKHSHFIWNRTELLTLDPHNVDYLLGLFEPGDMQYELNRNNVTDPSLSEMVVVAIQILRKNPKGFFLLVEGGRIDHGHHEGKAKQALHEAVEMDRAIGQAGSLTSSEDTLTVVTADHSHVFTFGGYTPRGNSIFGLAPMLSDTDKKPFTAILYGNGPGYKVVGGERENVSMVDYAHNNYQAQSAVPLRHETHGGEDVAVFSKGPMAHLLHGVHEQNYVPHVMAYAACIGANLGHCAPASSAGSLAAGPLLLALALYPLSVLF
Experiment: Inhibition of TNAP (unknown origin) using PPi as substrate
pIC50: −log10 of the molar value.
measurement kind: pIC50

• COc1ccc(-c2ccccc2)cc1S(=O)(=O)Nc1cccnc1 = 6.06
